test system: TO-3-N3 (biotin conjugate); test: pull-down binding Z-score (relative to library population); higher = stronger binding; conditions: RNA library: Library-2
Experimental Readout: pull-down binding Z-score
No unit in the answer, only the number.

[Q] Give pull-down binding Z-score (TO-3-N3 (biotin conjugate)) of the following sequence: GGCGCUGUCUUGAGACAUUCGCGCAGUGCA [hsa-mir-3177]
[A] -0.111

[Q] Record lookup: for TO-3-N3 (biotin conjugate), what pull-down binding Z-score belongs to GCUAGAAAAUCAGC [SHAPE_invivo_SARS-CoV-2_Motif_531] ?
[A] -0.186

[Q] Please provide the recorded pull-down binding Z-score for UUUUGCCAUUAAAAGUAAUGACAAAA [hsa-mir-548f-4] , tested on TO-3-N3 (biotin conjugate).
[A] -0.924

[Q] # get_value(readout= pull-down binding Z-score, system= TO-3-N3 (biotin conjugate)) for CCCAUAUAAUAUUAGGGG [hsa-mir-4483]
[A] -0.469

[Q] # get_value(readout= pull-down binding Z-score, system= TO-3-N3 (biotin conjugate)) for CUUUCUGUUGGCUAAAAGAAAAGAAAG [hsa-mir-518e]
[A] -0.396

[Q] Observed pull-down binding Z-score on TO-3-N3 (biotin conjugate) for UGUGCCUGCCUUCGAAGUGCACGGCAGG [hsa-mir-4297] , please.
[A] 0.105

* * *

system: TO-3-N3-2 (biotin conjugate); experiment: pull-down binding Z-score (relative to library population); higher = stronger binding; settings: RNA library: Library-2
Experimental Readout: pull-down binding Z-score
Hey, just send me the number, nothing else.

[Q] Which value of pull-down binding Z-score has been reported for GGGCCGUGCACCCGUGGGCCCC [hsa-mir-1915] in the records?
[A] 0.0124

[Q] What does the data say about its pull-down binding Z-score? Entry: GGAUGAAAGUCAAAGAAUCC [hsa-mir-1262]
[A] 0.0666

[Q] Look up pull-down binding Z-score: GCUGCUUGCACUCGUUCAGC [hsa-mir-3661]
[A] -0.246

[Q] Looking for the measured pull-down binding Z-score of UGUACUUGGAUUGGCUGCAAUCAUGCAAUUGUUUUUCAGCUAUUUUGCAGUACA [SHAPE_invivo_SARS-CoV-2_Motif_149] , can you help?
[A] -0.559

[Q] Which value of pull-down binding Z-score has been reported for CUGACCCGUUGUCAGACCUGGAAAAAGGGCCGGCUGUGGGCAGGGAGG [hsa-mir-4761] in the records?
[A] 5.16

[Q] Reported pull-down binding Z-score, sequence AUAGUUGAGGAGGACACCCAAGGAGAUCACUAU [hsa-let-7e] : ____
[A] 0.863

[Q] Name the recorded pull-down binding Z-score for GGAGCCCGAGCAGCCGCGGUGAA [hsa-mir-7706] .
[A] 0.551

[Q] Need pull-down binding Z-score, item UGUCGUAGAAAGUAAUGGCA [hsa-mir-548l]
[A] -0.0955

[Q] Query: pull-down binding Z-score; subject: UUUUUGUUUUUGAGACAGAGU [hsa-mir-4472-2]
[A] 0.0401

[Q] Quick one: pull-down binding Z-score of CAUGCGCUAUCUCUGUGUCGUAUG [hsa-mir-380] ?
[A] -0.301

[Q] State the recorded pull-down binding Z-score for this entry: UGCUUUUUGUUUCUAACAAAGCA [hsa-mir-4679-2]
[A] -0.407

[Q] Field request: pull-down binding Z-score | item: AAGUUAAUUUUCCUCUGGCUGUUAUGGCCAGUAACUU [SHAPE_invivo_SARS-CoV-2_Motif_506]
[A] -0.439

[Q] Find the recorded pull-down binding Z-score belonging to CCUAGUGGCUAGCCCUGGGUCUAGCAGCCUAUGGCAGUGUCUGGUAAACACUGGUGGAGUCCUGGG [hsa-mir-6745] and report it.
[A] -0.307

[Q] Reported pull-down binding Z-score, sequence GGUUGCUGGAGGUCAGC [hsa-mir-6871] : ____
[A] 0.233

[Q] I would be grateful if you could share the reported pull-down binding Z-score for CUUAAUAGAUUAAUAUUUGUAAG [hsa-mir-506] .
[A] -0.335

[Q] Name the reported pull-down binding Z-score value associated with the sequence AUGGUUCCUAUUCUGAUCAAUAAACAUGGUUUGAGCCUAGUUACAAUGAUCUAAAAUUCACGGUCCAA [hsa-mir-548o]
[A] -0.193

[Q] Item ACAACCCUUAAGGGUGU [SHAPE_invivo_SARS-CoV-2_Motif_115] has what recorded pull-down binding Z-score?
[A] -0.665

[Q] Looking for the measured pull-down binding Z-score of GCAGUAUAAUUAAUAACUAAUUACUGU [SARS-CoV-2-Conserved-Structured-36_Interval-120-237_Motif_1] , can you help?
[A] -0.428

[Q] Please give the measured pull-down binding Z-score for this sequence: GUGUGUGGCGUGGGUGCUGCGGGGCCGUCAGGGUGCCUGCGGGACGCUCAC [hsa-mir-6765]
[A] 0.334

[Q] Quick one: pull-down binding Z-score of CUUGGCUUCAAUUUACUCCCAGG [hsa-mir-4446] ?
[A] -0.0843

[Q] // lookup pull-down binding Z-score for CCUGCCACGUCAAAGGAGGCAGA [hsa-mir-3154]
[A] -0.38

[Q] Could you share which pull-down binding Z-score value was measured for UUUUUUUCGCUUUAUUUGUGACGAAAC [hsa-mir-543] ?
[A] -0.278

[Q] Look up pull-down binding Z-score: UUGAGAAGUAAUUGA [hsa-mir-548ak]
[A] -0.0284

[Q] Suppose we examine the sequence UUAACGUGAGUCUUGUAAAACCUUCUUUUUACGUUUACUCUCGUGUUAA [DMSMaPseq_invitro_SARS-CoV-2_Motif_474] ; what pull-down binding Z-score value has been reported?
[A] -0.0657

[Q] Query: pull-down binding Z-score; subject: GCGCUGCCAGAAACUGGCGGAGCGC [bulge-GG]
[A] -0.672

[Q] Value lookup for pull-down binding Z-score; key = UGUACGCUUUAUUUGUGACGUAGG [hsa-mir-1197]
[A] -0.0204

[Q] Consider the sequence UGGGAGUGAUCCCAACAGCUGAGCUCCCU [hsa-mir-7106] and give its measured pull-down binding Z-score.
[A] -0.0877

[Q] What pull-down binding Z-score value was documented for this sequence, CCUCCCUAGGGGAUCCCAGGUAGG [hsa-mir-4688] ?
[A] -0.168

[Q] Given the entry UGCUGUUGUUAAAAUUUAUUGUCCAGCA [SHAPE_invitro_SARS-CoV-2_Motif_28] , report its measured pull-down binding Z-score.
[A] -0.134

[Q] Consider the sequence shown here: ACAUCUCUGGCAUUAAUGCUUCAGUUGU [SHAPE_invivo_SARS-CoV-2_Motif_471] What is its recorded pull-down binding Z-score?
[A] -0.583

[Q] Returns the measured pull-down binding Z-score for the input sequence. Input: UGUCCGUGAUCCACAGACA
[A] -0.597

[Q] Any idea what pull-down binding Z-score was measured for GGCGGUGAAGCUCC [hsa-mir-4532] ?
[A] -0.285

[Q] Return reported pull-down binding Z-score; argument: GUUGUUACUCACAAUUUUGACUUCACUUUUAGUUUUAGUCCAGAGUACUCAAU
[A] -0.324

[Q] Bench note: what pull-down binding Z-score did CUUUGCUACUGCUC [hsa-mir-6072] show?
[A] -0.0975

[Q] Query (sequence): GUUUGCAAGGGGUGUUUCUGUCCAUGGUCAGGC [hsa-mir-4283-1_4283-2] ; field requested: pull-down binding Z-score
[A] 0.154

[Q] I have this sequence here, GCUUCAAGAGAGC , and I need its recorded pull-down binding Z-score.
[A] -0.171

[Q] So what does the record say about pull-down binding Z-score for UGUUCGCUUUAUUUAUGAUGAAUCA [hsa-mir-539] ?
[A] -0.121

[Q] Which pull-down binding Z-score is reported for this sequence? GCAAACAUACAACGUGUUGU [SHAPE_invitro_SARS-CoV-2_Motif_281]
[A] -0.176

[Q] Tell me the measured pull-down binding Z-score of UAGAUGAAUAAAUGAAUGACUCAUCA [hsa-mir-545] , please.
[A] 0.146

[Q] Find the recorded pull-down binding Z-score belonging to GAUUUGUCUUCUACAAUUUGCCUAUGCCAACAGGAAUAGGUUUUUGUAUAUAAUUAAGUUAAUUUUCCUCUGGCUGUUAUGGCCAGUAACUUUAGCUUGUUU and report it.
[A] -0.102

[Q] # input sequence: CGGGCUUAUGUUGCUCG ; wanted: its pull-down binding Z-score
[A] -0.43
